Kindly supply the reported pIC50 values for the records listed here.
# Tested On: HLA-DR DRB1*1101 (human)
# Protocol Summary: radioligand binding
One number for each entry, as −log10 of the molar value.

For the binder KSEEFQKRLHPYKDFIATLG [PAP_(173-192)] , what pIC50 is on record? 7.55

Now let's try a different one.
For the binder NPILLWQPIPVHTVPLSEDQ [PAP_(133-152)] , what pIC50 is on record? 6.02
